Tested on: KRAS-mutant PDC tumor spheroid with HUVEC/MSC, viability
ASSAY_SUMMARY: Anticancer human tumor 327498-153-R-J2-PDC patient-derived uterine carcinosarcoma cell line growth inhibition [KRAS2]
MEASUREMENT_SETUP: second compound 0.1 µM; first compound 0.01 µM; stronger effect = lower value
Description: Multicellular complex tumor spheroid response to RAS pathway inhibitors in combination with a targeted agents in patient-derived cell lines with oncogenic KRAS variants from multiple cancer types A high-throughput screen of multi-cell type tumor spheroids was designed to identify active combinations of targeted small molecules and KRAS pathway inhibitors. […] Compounds. […] If the clinical Cmax for an agent had not been determined, the highest concentration tested was 10 microM. […]
MEASURE: viability, T/C (%)
Numbers only, in %.

CN(C)C/C=C/C(=O)Nc1cc2c(Nc3ccc(F)c(Cl)c3)ncnc2cc1O[C@H]1CCOC1 + CNCc1ccccc1-c1csc(C(C)Nc2nc(C)nc3cc(OC)c(OC)cc23)c1
81
Cn1ncnc1[C@H]1c2n[nH]c(=O)c3cc(F)cc(c23)N[C@@H]1c1ccc(F)cc1 + COc1cc2nc(C)nc(NC(C)c3cc(N)cc(C(F)(F)F)c3)c2cc1OC1CCOC1
54.5
CC(C)n1nc(-c2ccc3oc(N)nc3c2)c2c(N)ncnc21 + CC1OCC2(CCN(c3cnc(Sc4ccnc(N)c4Cl)c(N)n3)CC2)C1N
18.5

Shift focus to the following entry.
Complete the entry with viability, T/C for CC(=O)Nc1cccc(-n2c(=O)n(C3CC3)c(=O)c3c(Nc4ccc(I)cc4F)n(C)c(=O)c(C)c32)c1 + CC1OCC2(CCN(c3cnc(Sc4ccnc(N)c4Cl)c(N)n3)CC2)C1N
44.7

* * *

System: KRAS-mutant PDC tumor spheroid with HUVEC/MSC, viability
ASSAY_SUMMARY: Anticancer human tumor 327498-153-R-J2-PDC cell line growth inhibition [KRAS2];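 note: spheroids exposed to agents for seven days before reading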
MEASUREMENT_SETUP: curve of first compound; second compound 3.16 µM
pIC50: −log10 of the molar value.
Would you kindly list pIC50 for each of these molecules?

Example molecules with recorded pIC50:
CC(=O)OC12COC1CC(O)C1(C)C(=O)C(O)C3=C(C)C(OC(=O)C(O)C(NC(=O)OC(C)(C)C)c4ccccc4)CC(O)(C(OC(=O)c4ccccc4)C21)C3(C)C (stereo not given) + COc1cc2nc(C)nc(NC(C)c3cc(N)cc(C(F)(F)F)c3)c2cc1OC1CCOC1
> 8.00
Cn1nccc1Nc1nccc(-c2cc3c(s2)C(C)(C)N(CCN2CCOCC2)C3=O)n1 + CNCc1ccccc1-c1csc(C(C)Nc2nc(C)nc3cc(OC)c(OC)cc23)c1
> 7.50
CC(=O)Nc1cccc(-n2c(=O)n(C3CC3)c(=O)c3c(Nc4ccc(I)cc4F)n(C)c(=O)c(C)c32)c1 + CC1OCC2(CCN(c3cnc(Sc4ccnc(N)c4Cl)c(N)n3)CC2)C1N
> 10.00

Report pIC50 for every entry below.
1. CCN1CCN(Cc2ccc(Nc3ncc(F)c(-c4cc(F)c5nc(C)n(C(C)C)c5c4)n3)nc2)CC1 + CNCc1ccccc1-c1csc(C(C)Nc2nc(C)nc3cc(OC)c(OC)cc23)c1
2. COc1cc(Nc2ncc3c(n2)-c2ccc(Cl)cc2C(c2c(F)cccc2OC)=NC3)ccc1C(=O)O + C=CC(=O)N1CCN(c2nc(OCC3CCCN3C)nc3c2CCN(c2cccc4cccc(C)c24)C3)CC1CC#N

1: > 8.50; 2: > 7.50

* * *

Test system: KRAS-mutant PDC tumor spheroid with HUVEC/MSC, viability
ASSAY_SUMMARY: Anticancer human tumor 327498-153-R-J2-PDC cell line growth inhibition [KRAS2];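 note: spheroids exposed to agents for seven days before reading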
MEASUREMENT_SETUP: curve of first compound; second compound 1 µM
Give measured IC50 for each item. Keep answers brief.

Cn1ncnc1[C@H]1c2n[nH]c(=O)c3cc(F)cc(c23)N[C@@H]1c1ccc(F)cc1 + CC1OCC2(CCN(c3cnc(Sc4ccnc(N)c4Cl)c(N)n3)CC2)C1N
< 0.316 nM
CC(C)NCC(C(=O)N1CCN(c2ncnc3c2C(C)CC3O)CC1)c1ccc(Cl)cc1 (stereo unspecified) + CNCc1ccccc1-c1csc(C(C)Nc2nc(C)nc3cc(OC)c(OC)cc23)c1
115 nM
CC1OCC2(CCN(c3cnc(Sc4ccnc(N)c4Cl)c(N)n3)CC2)C1N (stereo unspecified) + COc1cc2nc(C)nc(NC(C)c3cc(N)cc(C(F)(F)F)c3)c2cc1OC1CCOC1
99.3 nM
CCN1CCN(Cc2ccc(Nc3ncc(F)c(-c4cc(F)c5nc(C)n(C(C)C)c5c4)n3)nc2)CC1 + C=CC(=O)N1CCN(c2nc(=O)n(-c3c(C)ccnc3C(C)C)c3nc(-c4c(O)cccc4F)c(F)cc23)C(C)C1
< 3.16 nM
CC1COCCN1c1cc(-c2ccnn2C)c2ccnc(-c3ccn[nH]3)c2n1 (stereo unspecified) + CC1OCC2(CCN(c3cnc(Sc4ccnc(N)c4Cl)c(N)n3)CC2)C1N
< 10 nM

Lab note: next compound to report on.
State recorded IC50 with KRAS-mutant PDC tumor spheroid with HUVEC/MSC, viability, entry Cn1nccc1Nc1nccc(-c2cc3c(s2)C(C)(C)N(CCN2CCOCC2)C3=O)n1 + C=CC(=O)N1CCN(c2nc(=O)n(-c3c(C)ccnc3C(C)C)c3nc(-c4c(O)cccc4F)c(F)cc23)C(C)C1 , no comment.
3120 nM

* * *

System: KRAS-mutant PDC tumor spheroid with HUVEC/MSC, viability
ASSAY_SUMMARY: Anticancer human tumor 327498-153-R-J2-PDC cell line growth inhibition [KRAS2];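 note: spheroids exposed to agents for seven days before reading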;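 for viability, T/C: 100% = DMSO vehicle wells so lower means fewer viable cells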
MEASUREMENT_SETUP: second compound 0.0316 µM; first compound 10 µM; stronger effect = lower value
# strict inequality: viability, T/C < 10% yields label 1, everything else yields label 0

COC(=O)c1ccc2c(C(=Nc3ccc(N(C)C(=O)CN4CCN(C)CC4)cc3)c3ccccc3)c(O)[nH]c2c1 + C=CC(=O)N1CCN(c2nc(OCC3CCCN3C)nc3c2CCN(c2cccc4cccc(C)c24)C3)CC1CC#N
label 1
COc1cc2nccc(Oc3ccc(NC(=O)C4(C(=O)Nc5ccc(F)cc5)CC4)cc3)c2cc1OC + C=CC(=O)N1CCN(c2nc(OCC3CCCN3C)nc3c2CCN(c2cccc4cccc(C)c24)C3)CC1CC#N
label 1
Cn1nccc1Nc1nccc(-c2cc3c(s2)C(C)(C)N(CCN2CCOCC2)C3=O)n1 + C=CC(=O)N1CCN(c2nc(OCC3CCCN3C)nc3c2CCN(c2cccc4cccc(C)c24)C3)CC1CC#N
label 0
O=C(c1cc(Cc2n[nH]c(=O)c3ccccc23)ccc1F)N1CCN(C(=O)C2CC2)CC1 + C=CC(=O)N1CCN(c2nc(OCC3CCCN3C)nc3c2CCN(c2cccc4cccc(C)c24)C3)CC1CC#N
label 0
CCNC(=O)CC1N=C(c2ccc(Cl)cc2)c2cc(OC)ccc2-n2c(C)nnc21 (configuration not stated) + C=CC(=O)N1CCN(c2nc(OCC3CCCN3C)nc3c2CCN(c2cccc4cccc(C)c24)C3)CC1CC#N
label 0

A record lists COc1cc(Nc2ncc3c(n2)-c2ccc(Cl)cc2C(c2c(F)cccc2OC)=NC3)ccc1C(=O)O + C=CC(=O)N1CCN(c2nc(OCC3CCCN3C)nc3c2CCN(c2cccc4cccc(C)c24)C3)CC1CC#N . Is its viability, T/C below 10%?
label 0

Consider CC(C)NCC(C(=O)N1CCN(c2ncnc3c2C(C)CC3O)CC1)c1ccc(Cl)cc1 (configuration not stated) + C=CC(=O)N1CCN(c2nc(OCC3CCCN3C)nc3c2CCN(c2cccc4cccc(C)c24)C3)CC1CC#N . Does its viability, T/C lie strictly below 10%?
label 1

* * *

Assign viability, T/C to each entry below.
System: KRAS-mutant PDC tumor spheroid with HUVEC/MSC, viability
ASSAY_SUMMARY: Anticancer human tumor 327498-153-R-J2-PDC cell line growth inhibition [KRAS2];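 note: spheroids exposed to agents for seven days before reading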;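 for viability, T/C: 100% = DMSO vehicle wells so lower means fewer viable cells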
MEASUREMENT_SETUP: second compound 10 µM; first compound 0.000316 µM; stronger effect = lower value
Text: Multicellular complex tumor spheroid response to RAS pathway inhibitors in combination with a targeted agents in patient-derived cell lines with oncogenic KRAS variants from multiple cancer types A high-throughput screen of multi-cell type tumor spheroids was designed to identify active combinations of targeted small molecules and KRAS pathway inhibitors. […] Compounds. […] If the clinical Cmax for an agent had not been determined, the highest concentration tested was 10 microM. […]
Answers are plain numbers, in %.

Solved entries:
CN(C)C/C=C/C(=O)Nc1cc2c(Nc3ccc(F)c(Cl)c3)ncnc2cc1O[C@H]1CCOC1 + C=CC(=O)N1CCN(c2nc(=O)n(-c3c(C)ccnc3C(C)C)c3nc(-c4c(O)cccc4F)c(F)cc23)C(C)C1
87.2
CN(C)C/C=C/C(=O)Nc1cc2c(Nc3ccc(F)c(Cl)c3)ncnc2cc1O[C@H]1CCOC1 + CNCc1ccccc1-c1csc(C(C)Nc2nc(C)nc3cc(OC)c(OC)cc23)c1
0.49
Cn1ncnc1[C@H]1c2n[nH]c(=O)c3cc(F)cc(c23)N[C@@H]1c1ccc(F)cc1 + CC1OCC2(CCN(c3cnc(Sc4ccnc(N)c4Cl)c(N)n3)CC2)C1N
29.5

Attention now turns to another entry.
Tell us which viability, T/C value is on record for CN(C)C/C=C/C(=O)Nc1cc2c(Nc3ccc(F)c(Cl)c3)ncnc2cc1O[C@H]1CCOC1 + COc1cc2nc(C)nc(NC(C)c3cc(N)cc(C(F)(F)F)c3)c2cc1OC1CCOC1
58.5
